# Test system: P. falciparum NF54 strain
# Protocol: [3H]-hypoxanthine incorporation assay, asexual blood stage
# Format: cell-based, Plasmodium falciparum
# Test Context: Plasmodium falciparum, NF54, asexual blood stage; mean ± s.d.; read-out: PfNF54 IC50 ± s.d.
Result Type: pIC50
Answer as the number alone; pIC50 is minus log10 of concentration in mol/L.

Some solved cases for reference:
INSERT INTO assay_data (item_smiles, result_type, assay_result) VALUES
  ('Cc1cc(C(F)(F)F)cc(Oc2cccc(C(=O)Nc3cc(S(=O)(=O)N4CCCC4)ccc3O)c2)n1', 'pIC50', 6.67),
  ('O=C(Nc1cc(CN2CCOCC2)cc(F)c1O)c1cccc(Oc2cc(C(F)(F)F)ccn2)c1', 'pIC50', 7.67),
  ('O=C(Nc1cc(S(=O)(=O)N2CCCCC2)ccc1O)c1cccc(Oc2ccccc2)c1', 'pIC50', 6.24),
  ('O=C(Nc1cc(S(=O)(=O)N2CCOCC2)ccc1O)c1cccc(Oc2ccccc2)c1', 'pIC50', 6.71);

Kindly review the next molecule as well.
Value wanted: pIC50 (P. falciparum NF54 strain) of entry `Oc1ccc(CN2CCOCC2)cc1-n1cc(-c2cccc(Oc3cc(C(F)(F)F)ccn3)c2)nn1` 7.68

This collection of values is drawn from paper PMC12668308.
